This section presents molecules with their documented inhibition at 10 µM values.
Target: Cp149 (truncated form of a HBV core protein) (Hepatitis B virus genotype D subtype ayw, UniProt P03146)
Construct: Cp149 (amino acids 1-149) is a truncated form of a HBV core protein; histidine tag (cleaved yes); made in house; host or cells: Escherichia coli BL21(DE3)
Sequence (P03146 1-149): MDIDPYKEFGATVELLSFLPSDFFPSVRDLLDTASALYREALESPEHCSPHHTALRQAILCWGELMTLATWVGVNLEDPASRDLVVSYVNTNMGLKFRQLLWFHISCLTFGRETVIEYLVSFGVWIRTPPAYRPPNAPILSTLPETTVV
Test: Protein based assay: immunoblot analysis of in vitro HBV capsid assembly
Type: biochemical
Conditions: read-out: Protein based assay (% inhibition, 10 μM)
Method: Cp149 (amino acids 1-149) is a truncated form of a HBV core protein. It was expressed in Escherichia coli, and the expressed protein was purified. The recombinant Cp149 was expressed in E. coli BL21(DE3) cells cultured in LB medium at 37° C. When the culture reached an OD600 of 0.7 to 0.8, expression of the culture was induced with 0.5 mM isopropyl-β-d-thiogalactopyranoside and the culture was cooled to 16° C. […]
Express it in %; write the number only.

Prompt: Find the recorded inhibition at 10 µM belonging to COc1ncccc1C(=O)NCCNc1cc(Nc2ccc(N3CCOCC3)cc2)nc(SC)n1 and report it.
Completion: 23

Prompt: Find the recorded inhibition at 10 µM belonging to C[S+]([O-])c1nc(NCCNC(=O)c2ccc(Cl)cc2Cl)cc(Nc2ccc(N3CCOCC3)cc2)n1 (centres unmarked) and report it.
Completion: 0

Prompt: Find the recorded inhibition at 10 µM belonging to COc1cncc(C(=O)NCCNc2cc(Nc3ccc(N4CCOCC4)cc3)nc([S+](C)[O-])n2)c1 (centres unmarked) and report it.
Completion: 78

Prompt: Find the recorded inhibition at 10 µM belonging to CC(C)(C)OC(=O)N1CCN(c2cc(NCc3ccc(F)cc3)nc(S(C)(=O)=O)n2)CC1 [Compound 22b] and report it.
Completion: 40

Prompt: Find the recorded inhibition at 10 µM belonging to CSc1nc(NCCNC(=O)c2ccc(Cl)cc2Cl)cc(Nc2ccc(N3CCOCC3)cc2)n1 and report it.
Completion: 0

Prompt: Find the recorded inhibition at 10 µM belonging to CS(=O)(=O)c1nc(Cl)cc(Nc2cc(F)c(F)c(F)c2)n1 [Compound 16b] and report it.
Completion: 82

Prompt: Find the recorded inhibition at 10 µM belonging to CS(=O)(=O)c1nc(Nc2ccc(F)cc2)cc(N2CCNCC2)n1 [Compound 26a] and report it.
Completion: 86

Prompt: Find the recorded inhibition at 10 µM belonging to CSc1nc(NCCNC(=O)c2ccc(F)cc2)cc(Nc2ccc(N3CCOCC3)cc2)n1 and report it.
Completion: 0
